Data origin, for the record: paper PMC6581936

- protocolDetails: Fraction unbound to microsomes (fu,mic), equilibrium dialysis, HLM 0.2 mg/mL
- assaySetup: both, human, microsomes
measurementName: fraction unbound at 0.5 μM
Answers are plain numbers.

Query :: Quick one: fraction unbound at 0.5 μM for CC(=O)N1CCN(c2ccc(OCC3COC(Cn4ccnc4)(c4ccc(Cl)cc4Cl)O3)cc2)CC1 (stereo not shown) [Ketoconazole, reference compound] ?
Result :: 0.32

====

- protocolDetails: Papp of RO compounds
- Type: in vitro ADME
- assaySetup: not told, method not stated
measurementName: Papp (×10⁻⁶ cm/s)
One number for each entry, in ×10⁻⁶ cm/s.

COc1cc(C)c(-c2sc(S(=O)(=O)NC(=O)Nc3ncc(Br)s3)cc2C)cn1 [RO07] | 4
Cn1c(S(=O)(=O)NC(=O)Nc2ncc(Br)s2)cc2ccccc21 [RO06] | 3
COCCc1sc(S(=O)(=O)NC(=O)Nc2snc(C)c2Br)cc1C [RO09] | 2
Cc1cccc(S(=O)(=O)NC(=O)Nc2snc(C)c2Br)c1 [RO08] | 22
COCc1oc(S(=O)(=O)NC(=O)Nc2ncc(Br)s2)cc1C [RO03] | 9

Could you tell me Papp for each of these compounds? They are listed below.
1. COCc1oc(S(=O)(=O)NC(=O)Nc2nc(C)c(Br)s2)cc1C [RO04]
2. Cc1cccc2cc(S(=O)(=O)NC(=O)Nc3ncc(Br)s3)sc12 [RO02]
3. Cc1cccc(S(=O)(=O)NC(=O)Nc2cc(Br)cc(N)n2)c1 [RO01]
4. O=C(Nc1ncc(Br)s1)NS(=O)(=O)c1cc2cccc(Cl)c2s1 [RO05]

Result ::
1: 13; 2: 2; 3: 10; 4: 2
